Let's look at some binders and their measured IC50.
Target: T1, human IL-2Rβ (CD122 protein, Fc Tag) (27-239) (human, UniProt P14784 27-239)
T1 construct: range 27-239; Bought protein; also called hu-IL-2Rβ subunit; IL-2Rβ subunit; not shown: Fc tag of the bought protein
T1 sequence (looked up): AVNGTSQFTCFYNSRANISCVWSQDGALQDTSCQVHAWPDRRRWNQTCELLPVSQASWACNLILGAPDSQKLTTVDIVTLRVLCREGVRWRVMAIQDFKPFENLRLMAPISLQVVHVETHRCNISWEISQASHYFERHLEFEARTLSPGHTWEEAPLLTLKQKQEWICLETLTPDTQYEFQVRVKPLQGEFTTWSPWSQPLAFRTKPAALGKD
Assay: competition ELISA, peptide tracer
Experimental: Binding of Fc fusions to IL-2Rβ and IL-2Rγc were measured using a competition binding ELISA with biotinylated peptide/NeutrAvidin-HRP tracer. ELISA plate was prepared as described in Example 27. The plate was washed 4 times with PT (1×PBS, 0.05% Tween® 20) buffer. Fifty (50) μL of IL-2R ligands serially diluted in PBT was added to appropriate wells then incubated at 4° C. for 1 hr. […]

Illustrative cases are given below, each with its answer.
# binder, property-label, result
data = [
    ("GGRYVHDCFIAQVGDACDLFLHGG [SEQ ID NO 3176]", "IC50", "< 100 µM"),
    ("SEQ ID NO 4176 (peptide) peptide: GGRYVHDCFIAQVGDLCDLFLHPAPAPAPAPAPAPAPAGVVCQDWEGVELCWQGG", "IC50", "< 100 µM"),
]

Dear colleague, I am looking for the recorded IC50 of the following binder: GGRYVHDCFIAQVGDLCDLFLHGG [SEQ ID NO 3147]
< 100 µM

Where do these numbers come from? They come from patent US20220119492A1.
